system_under_test: human plasma kallikrein (Homo sapiens)
run_description: biochemical
experimental_parameters: purified human plasma kallikrein, substrate S-2302, sodium phosphate buffer pH 7.5
Structures can show the parent of a compound that is named as a salt.
reported_metric: log10 of Ki (log10 of the value in nM)

[[record]]
compound = "CCOc1cn(-c2ccc(Cl)c(F)c2-c2cc(=O)n([C@H]3CCC[C@@H](C)C(=O)Nc4ccc(F)cc4-c4ccnc3c4)cn2)nn1 [Example 136, trifluoroacetate]"
val = 1.88

[[record]]
compound = "C[C@@H]1CC(O)C[C@H](n2cnc(-c3c(-n4cc(Cl)nn4)ccc(Cl)c3F)cc2=O)c2cc(ccn2)-c2cc(F)ccc2NC1=O (stereo partly shown) [Example 40, trifluoroacetate]"
val = 1.11

[[record]]
compound = "C[C@@H]1CCC[C@H](n2cnc(-c3cc(Cl)ccc3-n3cc(Cl)nn3)cc2=O)c2cc(ccn2)-c2ccc(C(F)F)cc2NC1=O [Example 74]"
val = 1.60

[[record]]
compound = "C[C@@H]1CCC[C@H](n2cnc(-c3c(-n4cc(Cl)nn4)ccc(Cl)c3F)cc2=O)c2cc(ccn2)-c2cc(C#N)ccc2NC1=O [Example 98, trifluoroacetate]"
val = 1.60

[[record]]
compound = "C[C@@H]1CCC[C@H](n2cnc(-c3c(-n4cc(Cl)nn4)ccc(Cl)c3F)cc2=O)c2cc(ccn2)-c2ccccc2NC1=O [Example 58]"
val = 0.70

[[record]]
compound = "COC(=O)Nc1ccc2c(c1)CCCCCC[C@H](n1cnc(-c3cc(Cl)ccc3-n3cnnn3)cc1=O)c1nc-2c[nH]1 [Example 132, trifluoroacetate]"
val = 2.53

[[record]]
compound = "C[C@@H]1CCC[C@H](n2cnc(-c3cc(Cl)ccc3-c3cnn(C(F)F)c3)cc2=O)c2cc(ccn2)-c2cc(F)ccc2NC1=O [Example 124, trifluoroacetate]"
val = 2.89

[[record]]
compound = "C[C@@H]1CCC[C@H](n2cnc(-c3cc(Cl)ccc3-n3cc(Cl)nn3)cc2=O)c2cc(ccn2)-c2cc(C#N)ccc2NC1=O [Example 114, trifluoroacetate]"
val = 1.41

[[record]]
compound = "C[C@@H]1CCC[C@H](n2cnc(-c3cc(Cl)ccc3-n3cc(C(F)F)nn3)cc2=O)c2cc(ccn2)-c2ccccc2NC1=O [Example 94]"
val = 1.48

[[record]]
compound = "C[C@@H]1CCC[C@H](n2cnc(-c3cc(Cl)ccc3-n3cc(C(F)(F)F)nn3)cc2=O)c2cc(ccn2)-c2cc(F)ccc2NC1=O [Example 135, trifluoroacetate]"
val = 1.46


###

system_under_test: human plasma kallikrein (Homo sapiens, UniProt P03952)
Sequence (P03952 391-638 limits assumed): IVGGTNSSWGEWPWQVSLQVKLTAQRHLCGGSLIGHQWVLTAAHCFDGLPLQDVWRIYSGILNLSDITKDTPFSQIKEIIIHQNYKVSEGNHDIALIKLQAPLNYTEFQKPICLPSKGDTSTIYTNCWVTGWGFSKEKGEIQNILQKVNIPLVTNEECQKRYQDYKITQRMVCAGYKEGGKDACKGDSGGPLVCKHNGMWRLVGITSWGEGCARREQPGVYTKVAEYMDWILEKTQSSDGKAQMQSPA
Sequence (P03952 20-390 partner limits assumed): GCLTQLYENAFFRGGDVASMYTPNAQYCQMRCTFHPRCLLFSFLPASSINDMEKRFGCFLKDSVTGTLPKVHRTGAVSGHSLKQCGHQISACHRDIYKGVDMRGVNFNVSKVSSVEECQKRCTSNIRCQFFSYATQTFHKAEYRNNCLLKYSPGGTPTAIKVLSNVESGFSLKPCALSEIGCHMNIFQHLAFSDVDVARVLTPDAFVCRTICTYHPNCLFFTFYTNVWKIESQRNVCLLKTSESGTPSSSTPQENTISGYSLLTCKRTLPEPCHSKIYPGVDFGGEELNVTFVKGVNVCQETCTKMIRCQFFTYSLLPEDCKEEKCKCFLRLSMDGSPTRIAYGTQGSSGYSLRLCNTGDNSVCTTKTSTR
run_description: biochemical
experimental_parameters: purified human plasma kallikrein, substrate S-2302, sodium phosphate buffer pH 7.5
Where a name gives a salt, the structure may show the parent alone.
Use Ki to assign classes; range list: L: < 30 nM; M: ≥ 30 nM and < 600 nM; H: ≥ 600 nM

[[record]]
molecule = "C[C@@H]1CCC[C@H](n2cnc(-c3c(-n4cc(Cl)nn4)ccc(Cl)c3F)cc2=O)c2cc(ccn2)-c2cc(F)ccc2NC1=O [Example 142, trifluoroacetate]"
system_under_test = "human plasma kallikrein (Homo sapiens, UniProt P03952)"
class_assignment = "L"

[[record]]
molecule = "Cc1ccc(-n2cc(C(F)(F)F)nn2)c(-c2cc(=O)n([C@H]3CCC[C@@H](C)C(=O)Nc4cc(C#N)ccc4-c4ccnc3c4)cn2)c1"
system_under_test = "human plasma kallikrein (Homo sapiens, UniProt P03952)"
class_assignment = "M"

[[record]]
molecule = "C[C@@H]1CCC[C@H](n2cnc(-c3cc(Cl)ccc3C(F)(F)F)cc2=O)c2cc(ccn2)-c2cc(F)ccc2NC1=O [Example 141, trifluoroacetate]"
system_under_test = "human plasma kallikrein (Homo sapiens, UniProt P03952)"
class_assignment = "M"

[[record]]
molecule = "C[C@@H]1CCC[C@H](n2cnc(-c3cc(Cl)ccc3-n3cc(Cl)nn3)cc2=O)c2cc(ccn2)-c2ccc(C#N)cc2NC1=O [Example 89, trifluoroacetate]"
system_under_test = "human plasma kallikrein (Homo sapiens, UniProt P03952)"
class_assignment = "L"

[[record]]
molecule = "C#Cc1ccc2c(c1)NC(=O)[C@H](C)CCC[C@H](n1cnc(-c3cc(Cl)ccc3-n3cc(Cl)nn3)cc1=O)c1cc-2ccn1"
system_under_test = "human plasma kallikrein (Homo sapiens, UniProt P03952)"
class_assignment = "H"

[[record]]
molecule = "C[C@@H]1CCC[C@H](n2cnc(-c3cc(Cl)ccc3-n3cc(C(F)(F)F)nn3)cc2=O)c2ccnc(c2)-c2ccc(C#N)cc2NC1=O"
system_under_test = "human plasma kallikrein (Homo sapiens, UniProt P03952)"
class_assignment = "L"

[[record]]
molecule = "C[C@@H]1CCC[C@H](n2cnc(-c3c(-n4ccnn4)ccc(Cl)c3F)cc2=O)c2cc(ccn2)-c2c(ccc(F)c2F)NC1=O [Example 54, trifluoroacetate]"
system_under_test = "human plasma kallikrein (Homo sapiens, UniProt P03952)"
class_assignment = "M"

[[record]]
molecule = "COC(=O)Nc1ccc2c(c1)NC(=O)[C@H](C)CCC[C@H](n1cnc(-c3cc(Cl)cc4cnn(C)c34)cc1=O)c1cc-2ccn1"
system_under_test = "human plasma kallikrein (Homo sapiens, UniProt P03952)"
class_assignment = "M"

[[record]]
molecule = "C[C@@H]1CCC[C@H](n2cnc(-c3cc(Cl)ccc3-n3cc(C(F)(F)F)nn3)cc2=O)c2cncc(c2)-c2cc(F)ccc2NC1=O"
system_under_test = "human plasma kallikrein (Homo sapiens, UniProt P03952)"
class_assignment = "M"

[[record]]
molecule = "C[C@@H]1CCC[C@H](n2cnc(-c3cc(Cl)ccc3-n3cc(Cl)nn3)cc2=O)c2cc(ccn2)-c2ccc(OC(F)F)cc2NC1=O [Example 93, trifluoroacetate]"
system_under_test = "human plasma kallikrein (Homo sapiens, UniProt P03952)"
class_assignment = "H"

[[record]]
molecule = "COc1ccc(-n2cc(C(F)(F)F)nn2)c(-c2cc(=O)n([C@H]3CCC[C@@H](C)C(=O)Nc4ccc(F)cc4-c4cncc3c4)cn2)c1"
system_under_test = "human plasma kallikrein (Homo sapiens, UniProt P03952)"
class_assignment = "H"

[[record]]
molecule = "Cc1ccc(-n2cc(C(F)(F)F)nn2)c(-c2cc(=O)n([C@H]3CCC[C@@H](C)C(=O)Nc4ccccc4-c4ccnc3c4)cn2)c1"
system_under_test = "human plasma kallikrein (Homo sapiens, UniProt P03952)"
class_assignment = "M"


###

system_under_test: human plasma kallikrein (Homo sapiens)
run_description: biochemical
experimental_parameters: purified human plasma kallikrein, substrate S-2302, sodium phosphate buffer pH 7.5
Where a name gives a salt, the structure may show the parent alone.
reported_metric: Ki

[[record]]
compound = "COC(=O)Nc1ccc2c(c1)CCCCCC[C@H](n1cnc(-c3cc(Cl)ccc3-n3cc(Cl)nn3)cc1=O)c1nc-2c[nH]1"
system_under_test = "human plasma kallikrein (Homo sapiens)"
reported_metric = "Ki"
val = "2200 nM"

[[record]]
compound = "C[C@@H]1CCC[C@H](n2cnc(-c3cc(Cl)ccc3-n3cc(C#N)nn3)cc2=O)c2cc(ccn2)-c2ccc(C#N)cc2NC1=O [Example 38, trifluoroacetate]"
system_under_test = "human plasma kallikrein (Homo sapiens)"
reported_metric = "Ki"
val = "19 nM"

[[record]]
compound = "C[C@@H]1CCC[C@H](n2cnc(-c3cc(Cl)ccc3-n3cc(O)nn3)cc2=O)c2cc(ccn2)-c2cc(F)ccc2NC1=O [Example 139, trifluoroacetate]"
system_under_test = "human plasma kallikrein (Homo sapiens)"
reported_metric = "Ki"
val = "510 nM"

[[record]]
compound = "C[C@@H]1CCC[C@H](n2cnc(-c3cc(Cl)ccc3-n3cc(Cl)nn3)cc2=O)c2ccnc(c2)-c2ccc(C#N)cc2NC1=O"
system_under_test = "human plasma kallikrein (Homo sapiens)"
reported_metric = "Ki"
val = "19 nM"

[[record]]
compound = "C[C@@H]1CCC[C@H](n2cnc(-c3c(Cl)ccc(Cl)c3F)cc2=O)c2cc(ccn2)-c2cc(F)ccc2NC1=O [Example 147, trifluoroacetate]"
system_under_test = "human plasma kallikrein (Homo sapiens)"
reported_metric = "Ki"
val = "210 nM"

[[record]]
compound = "C[C@@H]1CCC[C@H](n2cnc(-c3cc(Cl)ccc3-n3cc(C(F)(F)F)nn3)cc2=O)c2cc(ccn2)-c2ccc(C(N)=O)cc2NC1=O"
system_under_test = "human plasma kallikrein (Homo sapiens)"
reported_metric = "Ki"
val = "36 nM"


###

system_under_test: human plasma kallikrein (Homo sapiens, UniProt P03952)
run_description: biochemical
experimental_parameters: purified human plasma kallikrein, substrate S-2302, sodium phosphate buffer pH 7.5
pKi: −log10 of the molar value. Where a name gives a salt, the structure may show the parent alone.
reported_metric: pKi

[[record]]
compound = "C[C@H]1CCC[C@H](n2cnc(-c3cc(Cl)ccc3-n3cc(C(F)(F)F)nn3)cc2=O)c2ccnc(c2)-c2cc(F)ccc2NC1=O [Example 145]"
reported_metric = "pKi"
val = 7.00

[[record]]
compound = "C[C@@H]1CCC[C@H](n2cnc(-c3cc(Cl)ccc3-n3cc(Cl)nn3)cc2=O)c2cc(ccn2)-c2c(Cl)cccc2NC1=O [Example 104]"
reported_metric = "pKi"
val = 6.72

[[record]]
compound = "C[C@@H]1CCC[C@H](n2cnc(-c3cc(Cl)ccc3-n3cc(C(F)(F)F)nn3)cc2=O)c2cc(ccn2)-c2ccc(CO)cc2NC1=O [Example 37, trifluoroacetate]"
reported_metric = "pKi"
val = 7.74

[[record]]
compound = "C[C@@H]1CCC[C@H](n2cnc(-c3cc(Cl)ccc3-n3cc(Cl)nn3)cc2=O)c2cc(ccn2)-c2ccc(OCC(=O)O)cc2NC1=O [Example 99]"
reported_metric = "pKi"
val = 5.31

[[record]]
compound = "C[C@@H]1CCC[C@H](n2cnc(-c3cc(Cl)ccc3-n3cc(C(N)=NO)nn3)cc2=O)c2cc(ccn2)-c2cc(F)ccc2NC1=O [Example 149, bis-trifluoroacetate]"
reported_metric = "pKi"
val = 7.42

[[record]]
compound = "C[C@@H]1CCC[C@H](n2cnc(-c3cc(Cl)ccc3-c3cnn(C)c3)cc2=O)c2cc(ccn2)-c2cc(F)ccc2NC1=O [Example 66]"
reported_metric = "pKi"
val = 6.05

[[record]]
compound = "Cc1cn(-c2ccc(Cl)c(F)c2-c2cc(=O)n([C@H]3CCC[C@@H](C)C(=O)Nc4ccc(F)cc4-c4ccnc3c4)cn2)nn1 [Example 137]"
reported_metric = "pKi"
val = 7.92

[[record]]
compound = "CCOc1cn(-c2ccc(Cl)cc2-c2cc(=O)n([C@H]3CCC[C@@H](C)C(=O)Nc4ccc(F)cc4-c4ccnc3c4)cn2)nn1 [Example 144, trifluoroacetate]"
reported_metric = "pKi"
val = 6.68

[[record]]
compound = "C[C@@H]1CCC[C@H](n2cnc(-c3cc(Cl)ccc3OC(F)(F)F)cc2=O)c2cc(ccn2)-c2cc(F)ccc2NC1=O [Example 146, trifluoroacetate]"
reported_metric = "pKi"
val = 5.42

[[record]]
compound = "COC(=O)Nc1ccc2c(c1)NC(=O)[C@H](C)CCC[C@H](n1cnc(-c3cc(Cl)ccc3F)cc1=O)c1cc-2ccn1 [Example 49, trifluoroacetate]"
reported_metric = "pKi"
val = 7.89

[[record]]
compound = "COC(=O)Nc1ccc2c(c1)NC(=O)[C@H](C)CCC[C@H](n1cnc(-c3cccc(Cl)c3F)cc1=O)c1cc-2ccn1 [Example 45, trifluoroacetate]"
reported_metric = "pKi"
val = 7.11

[[record]]
compound = "C[C@@H]1CCC[C@H](n2cnc(-c3cc(Cl)ccc3-n3cc(Cl)nn3)cc2=O)c2cc(ccn2)-c2ccc(Cl)cc2NC1=O [Example 75]"
reported_metric = "pKi"
val = 7.00

